# System: Alopecurus myosuroides (ALOMY)
# assayNotes: Herbicidal glasshouse test, pre-emergence, ALOMY
# Assay type: in vivo
# details: applied at 1000 g/h, evaluated after 13 days
Catalogue of PRE Application ALOMY, percentage damage (five point scale) values

# example entries with known answers
testSmiles	targetUnderTest	result
CC#CCn1c(=O)c(C(=O)Nc2nnnn2C)nn(C)c1=O	Alopecurus myosuroides (ALOMY)	4 (4=60-79%)
Cn1nnnc1NC(=O)c1nn(C)c(=O)n(-c2ccccc2)c1=O	Alopecurus myosuroides (ALOMY)	5 (5=80-100%)
Cn1nnnc1NC(=O)c1nn(C)c(=O)n(Cc2cccc(F)c2)c1=O	Alopecurus myosuroides (ALOMY)	5 (5=80-100%)

-- ask If you can, please state the reported PRE Application ALOMY, percentage damage (five point scale) value of C=CCn1nc(C(=O)Nc2nnnn2C)c(=O)n(Cc2cccc(F)c2)c1=O .
-- reply 3 (3=40-59%)

-- ask // query: Cn1nnnc1NC(=O)c1nn(C)c(=O)n(Cc2c(Cl)cccc2Cl)c1=O
-- reply 5 (5=80-100%)
